experiment: chemical genetic growth profiling, strain panel (AID 1159580);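 further: tested at 20 µM; growth read once vehicle control cultures reached saturation at 30 °C; 1 = growth at the plate median or of vehicle wells; lower values mean less growth of the strain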; conditions: S. cerevisiae deletion strains, growth OD, locus YGL173C, strain kem1, active compounds read low
About 2,000 (36%) of roughly 5,500 compounds were called active. Inconclusive results (about 18%) are left out. Some of the results follow.
For each of the compounds below, state its normalized growth.
Numbers only.

Solved cases (3 shown):
CC(=O)OCC[N+](C)(C)C: 1.02
CCN(CCO)CCCC(C)Nc1ccnc2cc(Cl)ccc12 (stereo not given): 0.996
COC1=CC(=O)C[C@@H](C)[C@]12Oc1c(Cl)c(OC)cc(OC)c1C2=O: 0.984

Quick batch: normalized growth for everything below.
1. CCN(CC)CCCC(C)Nc1c2ccc(Cl)cc2nc2ccc(OC)cc12 (stereo not given)
2. COc1ccc2c(c1OC)C(=O)O[C@@H]2[C@H]1c2cc3c(cc2CCN1C)OCO3
3. CS(=O)(=O)c1ccc(C2=C(c3ccccc3)C(=O)OC2)cc1
4. N=c1ccn2c(n1)O[C@@H]1C2O[C@H](CO)[C@H]1O (stereo not given in full)
5. CC(=O)NC1SCCC1=O (stereo not given)
6. CCN(CC)CCCC(C)Nc1ccnc2cc(Cl)ccc12 (stereo not given)

Response given:
1. 0.997
2. 0.993
3. 0.989
4. 0.981
5. 0.974
6. 1.04

Lab note: each compound below needs its normalized growth filled in.
1. COc1cc2c(cc1OC)[C@@H]1C(=O)c3ccc4c(c3O[C@@H]1CO2)C=CC(C)(C)O4
2. COC1=C(OC)C(=O)C(C/C=C(\C)CC/C=C(\C)CC/C=C(\C)CC/C=C(/C)CC/C=C(\C)CC/C=C(\C)CC/C=C(\C)CC/C=C(\C)CC/C=C(\C)CCC=C(C)C)=C(C)C1=O

Response given:
0.978
0.982

State the recorded normalized growth for every item in the following list.
1. CC(C[N+](C)(C)C)OC(N)=O (stereo not given)
2. CN(C)CC/C=C1\c2ccccc2Sc2ccc(Cl)cc21
3. COc1cc2c(cc1OC)[C@@H]1C(=O)c3ccc(OC)c(CC=C(C)C)c3O[C@@H]1CO2

Response given:
[1.01, 0.844, 1.04]

Measured normalized growth of "C[N+](C)(C)CCOC(N)=O" : 1.02
